Values compiled from PubChem BioAssay (NCI).

TGI reference
Test system: T-47D breast
assay_info: NCI tumour cell line growth inhibition, 48 h
measured_endpoint: TGI

compound: N#CC1=C(N)OC2=C(CCOc3c2ccc2ccccc32)C1c1ccc(Br)cc1 (stereo not given)
measured_endpoint: TGI
result: > 100 µM
//
compound: CCS(=O)(=O)c1ccc(OC)c(Nc2ncc(-c3cccc(F)c3)o2)c1
measured_endpoint: TGI
result: > 25 µM
//
compound: O=c1c2c3c(sc2nc2n1NC=NN2)CCCC3
measured_endpoint: TGI
result: > 65.8 µM
//
compound: NS(=O)(=O)c1ccc(N=Nc2c[nH]c(=O)c(O)c2)cc1
measured_endpoint: TGI
result: > 100 µM
//
compound: COc1cc(C2NC(=O)C(C#N)=C(Nc3cccc(C)c3)S2)ccc1O (stereo not given)
measured_endpoint: TGI
result: > 100 µM
//
compound: CC1(C)C(=O)/C=C\C(=O)C(C)(C)C(=O)/C=C\C(=O)C(C)(C)C2=CC=C(O2)C(C)(C)C(=O)/C=C\C1=O
measured_endpoint: TGI
result: 18.5 µM
//
compound: COc1cccc(OC)c1NC(=O)C(=O)Nn1c(NNC(=O)c2ccncc2)nc2ccccc2c1=O
measured_endpoint: TGI
result: > 100 µM
//
compound: Cc1c(C(N)=O)sc2nc(C)n(/N=c3\scc(-c4ccccc4)n3Cc3ccccc3)c(=O)c12
measured_endpoint: TGI
result: > 100 µM
//
compound: CN1CCN(c2ccc(NC3=CC(=O)c4ncncc4C3=O)cc2)CC1
measured_endpoint: TGI
result: 0.651 µM
//
compound: N#CC1=C(N)N(/N=C/c2ccco2)C(c2ccco2)C1(C#N)C#N (stereo not given)
measured_endpoint: TGI
result: 33.2 µM
